Assay: Antiglycation activity using BSA assessed as inhibition of AGE formation incubated at 37 degC for 9 days by fluorescence assay
Format: physicochemical
Conditions: read-out: IC50
// boundary case: IC50 equal to 300 µM maps to F; strictly smaller maps to T

Below, 6 compounds whose answers are already recorded.
# molecular.string, class.label
data = [
    ("COc1ccc(O)c(/C=N/NC(=O)c2ccc(-c3nc4cccc(C)c4[nH]3)cc2)c1", "F"),
    ("Cc1cccc2nc(-c3ccc(C(=O)N/N=C/c4ccc(O)c(O)c4)cc3)[nH]c12", "T"),
    ("Cc1cccc2nc(-c3ccc(C(=O)N/N=C/c4cccc(O)c4O)cc3)[nH]c12", "T"),
    ("Cc1cccc2nc(-c3ccc(C(=O)N/N=C/c4cc(O)ccc4O)cc3)[nH]c12", "T"),
    ("COC(=O)c1ccc(/C=N/NC(=O)c2ccc(-c3nc4cccc(C)c4[nH]3)cc2)cc1", "F"),
    ("Cc1cccc2nc(-c3ccc(C(=O)N/N=C/c4ccc(O)c(Br)c4)cc3)[nH]c12", "F"),
]

Next item in the queue.
query: Strictly below 300 µM in IC50? Cc1cccc2nc(-c3ccc(C(=O)N/N=C/c4cccc(O)c4)cc3)[nH]c12
result: T

* * *

Assay: Antioxidant activity assessed as DPPH free radical scavenging activity incubated at 37 degC for 30 mins by microtiter plate reader based method
Format: physicochemical
Please provide measured pIC50 for the entries that follow.
Numbers only, as −log10 of the molar value.

Go through the items and report each one's pIC50.
1. Cc1cccc2nc(-c3ccc(C(=O)N/N=C/c4ccc([N+](=O)[O-])cc4)cc3)[nH]c12
2. COc1ccc(/C=N/NC(=O)c2ccc(-c3nc4cccc(C)c4[nH]3)cc2)cc1O
3. Cc1cccc2nc(-c3ccc(C(=O)N/N=C/c4ccc(O)c(Br)c4)cc3)[nH]c12
4. Cc1cccc2nc(-c3ccc(C(=O)N/N=C/c4cccs4)cc3)[nH]c12

result:
1. 3.86
2. 4.31
3. 4.60
4. 3.96

Would you be so kind as to report pIC50 for each listed record?
1. Cc1cccc2nc(-c3ccc(C(=O)N/N=C/c4ccc(O)c(O)c4)cc3)[nH]c12
2. Cc1cccc2nc(-c3ccc(C(=O)N/N=C/c4ccccc4O)cc3)[nH]c12
3. Cc1cccc2nc(-c3ccc(C(=O)N/N=C/c4ccc(O)cc4O)cc3)[nH]c12
4. Cc1cccc2nc(-c3ccc(C(=O)N/N=C/c4ccncc4)cc3)[nH]c12
5. Cc1cccc2nc(-c3ccc(C(=O)N/N=C/c4cccnc4)cc3)[nH]c12

result:
[4.85, 4.27, 4.56, 4.05, 3.98]

* * *

Assay: Antioxidant activity assessed as superoxide anion radical scavenging activity by nitroblue tetrazolium method
Assay type: physicochemical
I'd appreciate it if you could supply IC50 values for the items below.
Numbers only, in µM.

# compound, unit.abbreviation, IC50
measured = [
    ("Cc1cccc2nc(-c3ccc(C(=O)N/N=C/c4ccncc4)cc3)[nH]c12", "µM", 340),
    ("COc1ccc(/C=N/NC(=O)c2ccc(-c3nc4cccc(C)c4[nH]3)cc2)c(O)c1", "µM", 202),
    ("COc1ccc(O)c(/C=N/NC(=O)c2ccc(-c3nc4cccc(C)c4[nH]3)cc2)c1", "µM", 215),
    ("COc1cc(/C=N/NC(=O)c2ccc(-c3nc4cccc(C)c4[nH]3)cc2)ccc1O", "µM", 104),
]

Kindly review the next compound as well.
query: Dear colleague, please send me the reported IC50 for CCCOC(=O)c1cc(O)c(O)c(O)c1 [PROPYL GALLATE] when you can.
result: 106

* * *

Test: Antioxidant activity assessed as superoxide anion radical scavenging activity by nitroblue tetrazolium method
Format: physicochemical
What IC50 was measured for each of the following?

# molecular.string, IC50
measured = [
    ("Cc1cccc2nc(-c3ccc(C(=O)N/N=C/c4ccccn4)cc3)[nH]c12", "350 µM"),
    ("Cc1cccc2nc(-c3ccc(C(=O)N/N=C/c4cc(O)cc(O)c4)cc3)[nH]c12", "90 µM"),
    ("Cc1cccc2nc(-c3ccc(C(=O)N/N=C/c4cccc(O)c4)cc3)[nH]c12", "212 µM"),
]

Okay, now this compound:
query: Provide IC50 value for the following compound: Cc1cccc2nc(-c3ccc(C(=O)N/N=C/c4cccnc4)cc3)[nH]c12
result: 310 µM

* * *

Would you kindly list pIC50 for each of these molecules?
Test: Antiglycation activity using BSA assessed as inhibition of AGE formation incubated at 37 degC for 9 days by fluorescence assay
Assay type: physicochemical
Conditions: read-out: IC50
Answers are plain numbers, as −log10 of the molar value.

Here are 3 molecules together with their reported answers.
# molecular.string, pIC50
data = [
    ("COc1ccc(/C=N/NC(=O)c2ccc(-c3nc4cccc(C)c4[nH]3)cc2)cc1O", 3.44),
    ("Cc1cccc2nc(-c3ccc(C(=O)N/N=C/c4ccccc4O)cc3)[nH]c12", 3.42),
    ("COc1ccc(/C=N/NC(=O)c2ccc(-c3nc4cccc(C)c4[nH]3)cc2)c(O)c1", 3.47),
]

Switching to the query record.
query: Assign pIC50 to the following record: COc1ccc(/C=N/NC(=O)c2ccc(-c3nc4cccc(C)c4[nH]3)cc2)c(I)c1O
result: 3.39

* * *

For each of the compounds below, state its pIC50.
Assay: Antiglycation activity using BSA assessed as inhibition of AGE formation incubated at 37 degC for 9 days by fluorescence assay
Type: physicochemical
Settings: read-out: IC50
Answers are plain numbers, as −log10 of the molar value.

Worked set:
# molecular.string, pIC50
rows = [
    ("Cc1cccc2nc(-c3ccc(C(=O)N/N=C/c4ccc(O)cc4O)cc3)[nH]c12", 3.85),
    ("Cc1cccc2nc(-c3ccc(C(=O)N/N=C/c4ccc(O)cc4)cc3)[nH]c12", 3.82),
    ("Cc1cccc2nc(-c3ccc(C(=O)N/N=C/c4cc(O)cc(O)c4)cc3)[nH]c12", 3.71),
    ("COc1cc(/C=N/NC(=O)c2ccc(-c3nc4cccc(C)c4[nH]3)cc2)ccc1O", 3.57),
]

API: the following record is the query input.
query: Specify pIC50 for Cc1cccc2nc(-c3ccc(C(=O)N/N=C/c4ccc([N+](=O)[O-])cc4)cc3)[nH]c12 and stop.
result: 3.35

* * *

Hi there, I'd appreciate the recorded pIC50 for every entry that follows.
Assay: Antioxidant activity assessed as superoxide anion radical scavenging activity by nitroblue tetrazolium method
Format: physicochemical
Numbers only, as −log10 of the molar value.

Some compounds with recorded pIC50:
# molecular.string, pIC50
records = [
    ("Cc1cccc(/C=N/NC(=O)c2ccc(-c3nc4cccc(C)c4[nH]3)cc2)c1", 3.46),
    ("COc1ccc(/C=N/NC(=O)c2ccc(-c3nc4cccc(C)c4[nH]3)cc2)c(I)c1O", 3.68),
    ("Cc1cccc2nc(-c3ccc(C(=O)N/N=C/c4cccs4)cc3)[nH]c12", 3.49),
    ("COc1ccc(/C=N/NC(=O)c2ccc(-c3nc4cccc(C)c4[nH]3)cc2)cc1OC", 3.48),
    ("COc1cccc(/C=N/NC(=O)c2ccc(-c3nc4cccc(C)c4[nH]3)cc2)c1", 3.46),
]

Record pIC50 per entry; entries follow.
1. Cc1cccc2nc(-c3ccc(C(=O)N/N=C/c4ccccc4O)cc3)[nH]c12
2. COc1ccc(/C=N/NC(=O)c2ccc(-c3nc4cccc(C)c4[nH]3)cc2)cc1
3. Cc1cccc2nc(-c3ccc(C(=O)N/N=C/c4cccc(O)c4O)cc3)[nH]c12
4. Cc1cccc2nc(-c3ccc(C(=O)N/N=C/c4ccc(Cl)cc4)cc3)[nH]c12
5. Cc1cccc2nc(-c3ccc(C(=O)N/N=C/c4ccc(O)c(Br)c4)cc3)[nH]c12
6. Cc1cccc2nc(-c3ccc(C(=O)N/N=C/c4ccc(O)cc4O)cc3)[nH]c12
7. Cc1cccc2nc(-c3ccc(C(=O)N/N=C/c4ccc(F)cc4)cc3)[nH]c12
8. Cc1cccc2nc(-c3ccc(C(=O)N/N=C/c4ccco4)cc3)[nH]c12

result:
[3.68, 3.47, 4.09, 3.44, 3.72, 4.04, 3.49, 3.51]

I need pIC50 for every entry listed below, if you could help.
1. COC(=O)c1ccc(/C=N/NC(=O)c2ccc(-c3nc4cccc(C)c4[nH]3)cc2)cc1
2. Cc1cccc2nc(-c3ccc(C(=O)N/N=C/c4cc(O)ccc4O)cc3)[nH]c12

result:
[3.49, 4.06]

* * *

Experiment: Antioxidant activity assessed as DPPH free radical scavenging activity incubated at 37 degC for 30 mins by microtiter plate reader based method
Assay type: physicochemical
pIC50: −log10 of the molar value.
So basically: pIC50 at 4 or higher? That is 1 (yes). Lower than 4? That is 0 (no).

# molecule, class.label
data = [
    ("Cc1cccc(/C=N/NC(=O)c2ccc(-c3nc4cccc(C)c4[nH]3)cc2)c1", "0 (no)"),
    ("COc1ccc(O)c(/C=N/NC(=O)c2ccc(-c3nc4cccc(C)c4[nH]3)cc2)c1", "1 (yes)"),
    ("Cc1cccc2nc(-c3ccc(C(=O)N/N=C/c4cccc(O)c4O)cc3)[nH]c12", "1 (yes)"),
]

query: Decide: pIC50 of CCCOC(=O)c1cc(O)c(O)c(O)c1 [PROPYL GALLATE] >= 4?
result: 1 (yes)

query: For this molecule, is measured pIC50 4 or higher? COc1ccc(/C=N/NC(=O)c2ccc(-c3nc4cccc(C)c4[nH]3)cc2)c(O)c1
result: 1 (yes)

query: Hello, I need to know if COC(=O)c1ccc(/C=N/NC(=O)c2ccc(-c3nc4cccc(C)c4[nH]3)cc2)cc1 has measured pIC50 not below 4. Thanks!
result: 0 (no)

query: Determine whether measured pIC50 meets or exceeds 4 for Cc1cccc2nc(-c3ccc(C(=O)N/N=C/c4ccc(O)cc4)cc3)[nH]c12
result: 1 (yes)

query: Please tell me: is the molecule COc1ccc(/C=N/NC(=O)c2ccc(-c3nc4cccc(C)c4[nH]3)cc2)c(I)c1O at or over 4 in terms of pIC50?
result: 1 (yes)

query: Please tell me: is the molecule COc1cc(/C=N/NC(=O)c2ccc(-c3nc4cccc(C)c4[nH]3)cc2)ccc1O at or over 4 in terms of pIC50?
result: 1 (yes)
